Hello, the source for this data is patent US20180057596A1, in case you need it.

Target: T1, human IL-4Rα HIS FLAG (in house HEK-EBNA derived) (human, biotinylated where used as the labelled partner in the DELFIA assay)
T1 construct: also called HuIL-4Rα; Human IL4-Rα/FLAG/HIS tag
T1 chain: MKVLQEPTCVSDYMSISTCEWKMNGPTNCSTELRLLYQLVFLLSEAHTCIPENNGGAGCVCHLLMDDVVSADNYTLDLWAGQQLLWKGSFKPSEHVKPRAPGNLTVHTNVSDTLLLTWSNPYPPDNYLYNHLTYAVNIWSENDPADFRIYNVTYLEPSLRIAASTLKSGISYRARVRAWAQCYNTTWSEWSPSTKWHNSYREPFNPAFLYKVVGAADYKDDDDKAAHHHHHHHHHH
Assay: SPR (BIAcore 2000), IgG captured on Protein G', receptor as analyte, 1:1 Langmuir
measured property: koff (s⁻¹)
Entry rule: numbers only, all in s⁻¹.

Solved cases below.
| binder | measured property | quantitative result |
| --- | --- | --- |
| Antibody 37GL IgG (antibody, V domains shown, germlined IgG; also called Antibody 37 (FGL)) VH: QVQLVQSGAEVKKPGASVKVSCKASGYAFTSYYMHWVRQAPGQGLEWMGIINPRGGSTSYAQKFQGRVTMTRDTSTSTVYMELSSLRSEDTAVYYCARGKYWMYDWGKGTLVTVSS VL: QSVLTQPPSVSAAPGQKVTISCSGGGSSIGNSYVSWYQQLPGTAPKLLIYDNNKRPSGIPDRFSGSKSGTSATLGITGLQTGDEADYYCGTWDTSPVWEWPFGTGTKLTVL | koff | 0.000346 |
| Antibody 37 IgG (antibody, V domains shown) VH: QVQLVQSGAEVKKPGASVKVSCKASGYAFTSYYMHWARQAPGQGLEWMGIINPRGGSTSYAQKFQGRVAMTRDTSTSTVYMELSSLRPEDTAVYYCARGKYWMYDWGKGTLVTVSS VL: QSVLTQPPSVSAAPGQKVTISCSGGGSSIGNSYVSWYQQLPGTAPKLLIYDNNKRPSGVPDRFSGSKSGTSATLAITGLQTGDEADYYCGTWDTSPVWEWPFGTGTKLTVL | koff | 0.000162 |
| Antibody 2 IgG (antibody, V domains shown) VH: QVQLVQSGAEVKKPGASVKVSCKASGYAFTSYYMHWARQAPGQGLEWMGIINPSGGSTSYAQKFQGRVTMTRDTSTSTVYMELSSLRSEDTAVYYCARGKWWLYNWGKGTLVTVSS VL: QSVLTQPPSVSAAPGQKVTISCSGGSSNIGNSYVSWYQQLPGTAPKLLIYDNNKRPSGIPDRFSGSKSGTSATLAITGLQTGDEADYYCGTWDTSQPPNPLFGTGTKLTVL | koff | 0.00294 |

IN: Read off the recorded koff for Antibody 20 IgG (antibody, V domains shown) VH: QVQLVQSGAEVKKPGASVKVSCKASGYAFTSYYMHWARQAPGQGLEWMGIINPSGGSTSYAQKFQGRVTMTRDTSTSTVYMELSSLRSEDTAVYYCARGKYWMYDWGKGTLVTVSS VL: QSVLTQPPSVSAAPGQKVTISCSGGSSNIGNSYVSWYQQLPGTAPKLLIYDNNKRPSGIPDRFSGSKSGTSATLAITGLQTGDEADYYCGTWDTSTVWEWPFGTGTKLTVL
OUT: 0.000873

IN: For the binder Antibody 9 IgG (antibody, V domains shown) VH: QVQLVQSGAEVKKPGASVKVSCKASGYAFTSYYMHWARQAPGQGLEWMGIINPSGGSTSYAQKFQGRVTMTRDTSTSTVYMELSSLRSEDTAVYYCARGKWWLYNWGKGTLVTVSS VL: QSVLTQPPSVSAAPGQKVTISCSGGSSNIGNSYVSWYQQLPGTAPKLLIYDNNKRPSGIPDRFSGSKSGTSATLAITGLQTGDEADYYCGTWDTSTTMYPLFGTGTKLTVL , give its measured koff value.
OUT: 0.000229
